Test system: streptozotocin induced diabetic Fischer 344 rats with transplanted Lewis rat islet cells
assay-name: Allogeneic pancreatic islet cell transplantation - combined intraperitoneal administration
Assay type: in vivo
stated-conditions: 50 μg/kg combined with CsA (5 mg/kg), i.p. for 14 days
Reported Average number of days for which islet cell function was maintained is given for each of the following compounds.
observable: Average number of days for which islet cell function was maintained

>>> result("COc1cc2c(c(OC)c1OC)-c1ccc(OC)c(=O)cc1C(NC(=O)OCC1c3cc(C(C)(C)C)ccc3-c3ccc(C(C)(C)C)cc31)CC2 (centres unmarked)")
"36.5 days"
>>> result("COc1cc2c(c(OC)c1OC)-c1ccc(OC)c(=O)cc1C(NC(=O)OCc1ccc(C(C)C)cc1)CC2 (centres unmarked)")
">55.7 days"
>>> result("COc1cc2c(c(OC)c1OC)-c1ccc(OC)c(=O)cc1C(NC(=O)OCc1ccccc1)CC2 (centres unmarked)")
"27 days"
>>> result("COc1ccc(CCC(=O)NC2CCc3cc(OC)c(OC)c(OC)c3-c3ccc(OC)c(=O)cc32)cc1 (centres unmarked)")
"20.7 days"
>>> result("COc1cc2c(c(OC)c1OC)-c1ccc(OC)c(=O)cc1C(NC(=O)OCCC1c3ccccc3-c3ccccc31)CC2 (centres unmarked)")
"28 days"
>>> result("COc1cc2c(c(OC)c1OC)-c1ccc(OC)c(=O)cc1C(NC(=O)CC1c3ccccc3-c3ccccc31)CC2 (centres unmarked)")
"26.5 days"
>>> result("COc1cc2c(c(OC)c1OC)-c1ccc(OC)c(=O)cc1C(NC(=O)OCC1c3ccccc3-c3cccc(C)c31)CC2 (centres unmarked)")
"24 days"
>>> result("COc1ccc(COC(=O)NC2CCc3cc(OC)c(OC)c(OC)c3-c3ccc(OC)c(=O)cc32)cc1 (centres unmarked)")
">61.6 days"
